Assignment: determine reported pIC50 for the given compounds.
# SYSTEM_UNDER_TEST: GST-tagged mouse Mcl-1-(152–309) (Mus musculus)
# Sequence (P97287 152-309): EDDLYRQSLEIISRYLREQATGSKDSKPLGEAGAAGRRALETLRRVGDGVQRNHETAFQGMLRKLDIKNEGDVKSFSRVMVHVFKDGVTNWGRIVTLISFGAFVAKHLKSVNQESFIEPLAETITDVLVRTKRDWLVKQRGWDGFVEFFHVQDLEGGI
# ASSAY_SUMMARY: Fluorescence polarization competitive binding assay, GST-Mcl-1 / FITC-Bim-BH3
# ASSAY_SETUP: FP, GST-Mcl-1 and fluorescein-labeled Bim BH3 peptide; read-out: IC50 on Mcl-1
Entry type: numeric. Quantity: pIC50, the -log10 of concentration in molar units.

Q: # lookup: pIC50 of Cn1cc(C(=O)C2CCCCC2)c2cc(C(=O)NS(=O)(=O)c3ccc(-c4ccc(C(C)(C)C)cc4)cc3)ccc21
Ans: 4.66

Q: Do the same for O=C(NS(=O)(=O)c1ccc(CNc2cccc([N+](=O)[O-])c2)cc1)c1ccc(CN2C(=O)C(c3ccc(F)cc3F)=C(c3ccc(F)cc3F)C2=O)cc1 please
Ans: 4.87

Q: Now try Cc1noc(C)c1-c1ccc(S(=O)(=O)NC(=O)c2ccc(CN3C(=O)C(c4ccc(F)cc4F)=C(c4ccc(F)cc4F)C3=O)cc2)cc1 .
Ans: 4.72

Q: Likewise for COc1cccc(CN(CCSc2ccccc2)Cc2ccc(S(=O)(=O)NC(=O)c3cccc4ccccc34)cc2)c1 ?
Ans: 4.70

Q: And then COc1cccc(CN(CCSc2ccccc2)Cc2ccc(S(=O)(=O)NC(=O)c3ccc(OC(F)(F)F)cc3)cc2)c1 , what is it?
Ans: 5.08

Q: Do the same for COc1cc(OC)cc(C(=O)NS(=O)(=O)c2ccc(CN(CCSc3ccccc3)Cc3ccc(S(=O)(=O)N=[N+]=[N-])cc3)cc2)c1 please
Ans: 5.09

Q: COc1ccc(Cc2ccc(C(=O)NS(=O)(=O)c3ccc(CN(CCSc4ccccc4)Cc4ccc5c(c4)OCO5)cc3)cc2)c(OC)c1OC ?
Ans: 4.70

Q: Input O=C(NS(=O)(=O)c1ccc(CN(CCSc2ccccc2)Cc2ccc3c(c2)OCO3)cc1)c1ccc(OC(F)(F)F)cc1
Ans: 5.23

Q: Now consider O=C(NS(=O)(=O)c1ccc(-c2ccc(C(F)(F)F)cc2)cc1)c1cccc(NCCc2ccccc2)c1 .
Ans: 4.50

Q: // next record O=C(NS(=O)(=O)c1ccc(NCCSc2ccccc2)c([N+](=O)[O-])c1)c1ccc2c(ccn2Cc2ccc(C(F)(F)F)cc2C(F)(F)F)c1
Ans: 4.58

Q: Now the same for COc1cccc(CN(CCSc2ccccc2)Cc2ccc(S(=O)(=O)NC(=O)c3sc(-c4ccccc4)nc3C)cc2)c1
Ans: 5.07

Q: Then what about the compound [N-]=[N+]=NS(=O)(=O)c1ccc(CN(CCSc2ccccc2)Cc2ccc(S(=O)(=O)NC(=O)c3ccc(CCc4ccccn4)cc3)cc2)cc1 ?
Ans: 4.69

Q: Repeat with [N-]=[N+]=NS(=O)(=O)c1ccc(CN(CCSc2ccccc2)Cc2ccc(S(=O)(=O)NC(=O)c3ccccc3)cc2)cc1
Ans: 4.70

All figures here come from paper PMC10620989.
